Data provenance is ChEMBL document CHEMBL4513216.

Assay: Toxicity liver stage against HepG2, at 10uM
Assay type: cell-based
Design: test concentration 10 uM, cell line HepG2-A16-CD81EGFP
Conditions: human, HepG2-A16-CD81EGFP cells; read-out: INHIBITION
measured-metric: cytotoxicity at 10 µM

Recorded results for 2 molecules are shown here.
O=C(C1CCCc2[nH]ncc21)N1CCCC2(C1)OCCO2 (stereo unspecified) :: -1.26%
Cc1nc2sccn2c1CNc1cc(C(=O)O)ccc1F :: 4.59%

Give the measured cytotoxicity at 10 µM of "CN(C)C1CCN(C(=O)c2cc(-c3ccn(C)n3)n3ccccc23)CC1" . -117%

Give the measured cytotoxicity at 10 µM of CC(=O)N1CCC(Nc2cc(F)ccc2OCC2CCCO2)CC1 (stereo unspecified) . -14.3%

Give the measured cytotoxicity at 10 µM of "Cc1[nH]c2c(C)ccc(C)c2c1CC(=O)NCCCNc1cccnc1" . 0.0773%

Give the measured cytotoxicity at 10 µM of "Cc1nn(CC(=O)NCCc2ccncc2)c(=O)n1Cc1ccccc1" . 18.5%

====

Assay: Toxicity liver stage against HepG2, at 10uM
Format: cell-based
Set-up: test concentration 10 uM, cell line HepG2-A16-CD81EGFP
Details: human, HepG2-A16-CD81EGFP cells; read-out: INHIBITION
We begin with a simple list: items and their reported cytotoxicity at 10 µM.
// return numeric value only (unit: %, not printed)

CCN1C(=O)C(C)(C)c2cc(NC(=O)c3ccn(CC)n3)ccc21 :: 9.65
COCC(=O)N1CCn2c(CN3CCN(C)CC3)cnc2C1 :: -70
CN(C)c1ncccc1CNCc1ccc(N2CCOCC2)cc1 :: 5.95
O=C(CNc1ccccc1S(=O)(=O)C(F)F)NCc1ccco1 :: -53
O=C(O)Cn1ccc(=O)c2ccc(Cl)cc21 :: -7.76

Could you now consider this next compound?
Give the measured cytotoxicity at 10 µM of "Cc1ccc2cc(C(=O)NCCN3CCS(=O)(=O)CC3)c(C)nc2c1" . 10.5

====

Experiment: Toxicity liver stage against HepG2, at 10uM
Assay type: cell-based
Design: test concentration 10 uM, cell line HepG2-A16-CD81EGFP
Conditions: human, HepG2-A16-CD81EGFP cells; read-out: INHIBITION
measured-metric: cytotoxicity at 10 µM
# number then unit; no other words

Recorded results for 2 compounds are shown here.
Cc1cc(NC(=O)CNC(C)(C)c2ccc3c(c2)OCCO3)no1 :: -7.1%
COc1ccc(C(C(=O)O)N2CCN(C3CCCCC3)CC2)cc1OC (configuration not stated) :: -4.89%

Give the measured cytotoxicity at 10 µM of Cc1ccc(C2=CCN(C(=O)C3CCN(C)C(=O)C3)CC2)cc1 (configuration not stated) . -12.1%

====

Test: Toxicity liver stage against HepG2, at 10uM
Type: cell-based
Set-up: test concentration 10 uM, cell line HepG2-A16-CD81EGFP
Conditions: human, HepG2-A16-CD81EGFP cells; read-out: INHIBITION
measured-metric: cytotoxicity at 10 µM (%)
// return numeric value only (unit: %, not printed)

CCc1noc(C)c1C(=O)NCc1cc[nH]n1 :: 3.44
COc1ccc(Br)cc1SCCC(N)=O :: 7.72
CCCS(=O)(=O)N1C[C@@H]2CN(Cc3ccco3)CCO[C@@H]2C1 :: -142
COC1COC2(CCN(C(=O)c3ccc4ccccc4c3)CC2)C1 (configuration not stated) :: -98.4

Give the measured cytotoxicity at 10 µM of "OCc1c(Cl)ncn1-c1ccccc1" . -8.99

Give the measured cytotoxicity at 10 µM of "O=C(CN1CCCNC1=O)Nc1ccccc1C(=O)C1CCCC1" . 9.83

Give the measured cytotoxicity at 10 µM of "Cc1ccc(CNC(=O)c2c[nH]nc2NC(=O)COCC2CC2)cc1" . 3.58

Give the measured cytotoxicity at 10 µM of CC(C)CNC(=O)c1ccc(NC(=O)NC(C)c2ccccn2)cc1 (configuration not stated) . 5.26

Give the measured cytotoxicity at 10 µM of Cc1occc1C(=O)N1CCC2(CC1)NC(=O)CC2c1cnn(C)c1 (configuration not stated) . -4.99

Give the measured cytotoxicity at 10 µM of "CC(C)c1nc(CN2CCN(C(=O)Cc3ccccc3Cl)CC2)no1" . -1.96

Give the measured cytotoxicity at 10 µM of "CCc1ccccc1CN1CCn2nc(CNC(C)=O)cc2C1" . 5.18

Give the measured cytotoxicity at 10 µM of "CN(C)c1nc(NCc2ccccc2Cn2cccn2)ncc1F" . 54.4

====

Assay: Toxicity liver stage against HepG2, at 10uM
Type: cell-based
Design: test concentration 10 uM, cell line HepG2-A16-CD81EGFP
Settings: human, HepG2-A16-CD81EGFP cells; read-out: INHIBITION
measured-metric: cytotoxicity at 10 µM (%)
// return numeric value only (unit: %, not printed)

Recorded results for 5 molecules are shown here.
CC(C)N1CCc2c(C#N)c(NCc3ccco3)n3cnnc3c2C1 :: -2.02
CC(C)N1CCN(C(=O)c2csc3nc(-c4ccc(Cl)cc4)cn23)CC1 :: 1.98
CC(C)N(C)C(=O)CSCc1ccc(S(=O)(=O)N(C)C)o1 :: 19.1
CCCNC(=O)c1cc2c(s1)CCN2C(=O)CN(C)C :: 2.03
Cc1ccc(C2CSCCN2C(=O)c2cc(C(N)=O)cs2)o1 (centres undefined) :: 5.48

Give the measured cytotoxicity at 10 µM of Cc1cnn(C2CCCN(C(=O)c3ccc(NC4CC4)nc3)C2)c1 (centres undefined) . -19.6

Give the measured cytotoxicity at 10 µM of CCC(CNC(=O)Nc1cnn(CC)c1)N1CCc2ccccc2C1 (centres undefined) . 4.72

Give the measured cytotoxicity at 10 µM of Cc1cnn(CC2CCCCN2C(=O)CN(C)C2CC2)c1 (centres undefined) . -1.23

Give the measured cytotoxicity at 10 µM of "O=C(c1ccncc1)N1CCN(Cc2cccnc2)c2ncccc2C1" . -1.16

Give the measured cytotoxicity at 10 µM of "NC(=O)c1ccc(CNC(=O)NCc2cc[nH]n2)cc1" . 12.3

Give the measured cytotoxicity at 10 µM of "O=C(CNC(=O)N1CCc2c([nH]c3ccc(Cl)cc23)C1)NCCCO" . 5.36

====

Experiment: Toxicity liver stage against HepG2, at 10uM
Assay type: cell-based
Design: test concentration 10 uM, cell line HepG2-A16-CD81EGFP
Conditions: human, HepG2-A16-CD81EGFP cells; read-out: INHIBITION
measured-metric: cytotoxicity at 10 µM (%)
// return numeric value only (unit: %, not printed)

Recorded results for 5 compounds are shown here.
O=C(COc1cccnc1)N1CCOC(C(F)(F)F)C1 (configuration not stated) :: -11.5
Cc1nc(CN2CCCN(CC(=O)N(C)CCC#N)CC2)no1 :: 6.28
O=C1CCC2(CCOC2)CN1Cc1nncn1CCc1ccccc1 (configuration not stated) :: -0.506
CNS(=O)(=O)c1cccc(C(C)NCc2ccc(C)c(C)c2)c1 (configuration not stated) :: 3.92
Cn1cccc1C(=O)N1CCC2(CCCN2S(C)(=O)=O)CC1 :: 5.13

Give the measured cytotoxicity at 10 µM of O=C(NC1CC2(CCN(CCO)CC2)c2ccccc21)c1ccncc1 (configuration not stated) . -9.54

Give the measured cytotoxicity at 10 µM of "CN(C)CCNC(=O)c1cnc2c(c1)nc(-c1ccccc1Cl)n2C" . 10.6

Give the measured cytotoxicity at 10 µM of "COCCN(CCOC)c1ncccc1Cl" . 3.94

Give the measured cytotoxicity at 10 µM of "CCc1cnc(N2CCN(Cc3ccno3)CC2)s1" . -2.54

Give the measured cytotoxicity at 10 µM of "COCCNC(=O)[C@]12COC[C@H]1CN(c1cc(OC)ncn1)C2" . 4.32

Give the measured cytotoxicity at 10 µM of c1cnn(CC2CN(Cc3nc(-c4ccsc4)no3)CCO2)c1 (configuration not stated) . -8.06

Give the measured cytotoxicity at 10 µM of O=C1NC2(CCN(Cc3ccccc3Cl)CC2)CC1c1ccccc1 (configuration not stated) . -49.2

====

Test: Toxicity liver stage against HepG2, at 10uM
Format: cell-based
Design: test concentration 10 uM, cell line HepG2-A16-CD81EGFP
Conditions: human, HepG2-A16-CD81EGFP cells; read-out: INHIBITION
measured-metric: cytotoxicity at 10 µM (%)
// return numeric value only (unit: %, not printed)

Recorded results for 5 compounds are shown here.
O=C(NC1CC1)[C@H]1COC[C@H]2CN(c3ncc(F)cn3)C[C@H]21 :: -0.664
Cc1sc(CS(C)(=O)=O)nc1-c1ccc(Cl)cc1 :: -4.07
CC(NCC1(N(C)C)CCOCC1)c1ccc(S(C)(=O)=O)cc1 (stereo unspecified) :: -3.27
Cc1[nH]nc2ncc(C(=O)N3CCN(CC(C)(C)O)CC3)cc12 :: -0.0414
NC(=O)c1cc2c(nc1-c1ccc3c(c1)CCO3)CCC2 :: -11.3

Could you now consider this next compound?
Give the measured cytotoxicity at 10 µM of "O=S1(=O)COCCN1Cc1ccc(F)cc1Cl" . 14.7
